- Assay name: Solubility in propylene carbonate
- Assay type: physicochemical
- Recorded conditions: organic solvent or mixture
Measurement type: solubility

Compound | Measurement type | Observed result
Cc1cc(C)c(-c2cc3sc4cc(-c5cccc(-c6cc[n+](Cc7ccccc7)cc6)c5)sc4c3s2)c(C)c1 | solubility | ≥ 300 mM
Cc1cc(C)c(-c2cc3sc4cc(-c5cccc(-c6ccncc6)c5)sc4c3s2)c(C)c1 [Ref-1, reference compound] | solubility | ≤ 8 mM
Cc1c(-c2cccc(-c3cc[n+](Cc4ccccc4)cc3)c2)sc(-c2cccc(-c3cc[n+](Cc4ccccc4)cc3)c2)c1C | solubility | ≥ 75 mM
